Measured values drawn from PubChem BioAssay (NCI) for this set.

- Test system: CCRF-CEM leukemia
- measurement_protocol: NCI tumour cell line growth inhibition, 48 h

compound	TGI
Cc1cccc(Cl)c1NC(=O)c1cnc(Nc2cc(N3CCOCC3)cc(S(C)(=O)=O)c2)s1	> 10 µM
COc1cc(C2OC[C@@H]3C(=O)OC[C@H]23)cc(O)c1OC (stereo not given in full)	> 100 µM
CCN(CC)Cc1cc(Nc2ccnc3ccc4nn(C)nc4c23)ccc1O	> 100 µM
C/C(=C\C(=N\NC(=N)N)c1ccccc1)c1ccccc1	1.8 µM
C(#CC1(Nc2ccccc2)CCN(Cc2ccccc2)CC1)C1(Nc2ccccc2)CCN(Cc2ccccc2)CC1	37.3 µM
CC(=O)OCC1OC(n2ncc(=O)[nH]c2=O)C(OC(C)=O)C1OC(C)=O (stereo not given)	> 100 µM
COc1ccc(/C=C2\CCC(CCN3CCOCC3)C2=O)cc1 (stereo not given)	> 100 µM
CN1C(=O)C2(c3ccccc31)C1CC3C(CO1)C1C2C3(CO)CN1C#N (stereo not given)	> 100 µM
Cc1ccsc1-c1ccc2c(c1)COC2(CCCN(C)C)c1ccc(F)cc1 (stereo not given)	8.56 µM
Cc1ccccc1Nc1nc(NNC(=O)Cc2ccccc2)nc(NNC(=O)c2ccncc2)n1	> 10 µM
O=[N+]([O-])C=C1c2ccccc2-c2ccccc21	80.8 µM
Cc1cc2c(cc1Cl)SC(NNC1=NCCN1)=NS2(=O)=O	> 10 µM
C[C@H]1CCC/C=C/[C@@H]2C[C@H](O)C[C@H]2[C@H](O)/C=C/C(=O)O1	5.53 µM
CCOC(=O)/C(=C\NC(C)(C)CO)c1nc2ccccc2[nH]1	> 100 µM
Cc1cc(S(=O)(=O)NC(=NCCc2ccccc2)NN)c(S)cc1Cl	90.1 µM
COc1ccc(N=Nc2c(N)nn(C)c2N)cc1	> 100 µM
O=c1[nH]c2cc([N+](=O)[O-])c(N/N=C/c3ccc(Cl)cc3Cl)c([N+](=O)[O-])c2[nH]1	> 100 µM
O=CN1CCC23CC(O)CCC2C1Cc1cc(Oc2nnnn2-c2ccccc2)cc(O)c13 (stereo not given)	> 100 µM
COc1ccc(Cn2cc3c(c2-c2cc(OC)c(OC)c(OC)c2)CCc2c(CO)noc2-3)cc1	23.7 µM
CN1NC(c2ccccc2)=C(C#N)C(=O)CC1c1ccc(F)cc1 (stereo not given)	> 100 µM
COc1cc(CNc2cnc3ccc(N)cc3n2)cc(OC)c1OC	> 100 µM
CC(=O)N[C@@H](Cc1ccc(OP(=O)(O)O)cc1)C(=O)N[C@H]1CCC(=O)N2CCC[C@@H](C(=O)NCc3ccccc3)N2C1=O	> 25 µM
CCOC(=O)c1sc2nc1CSc1sc(=S)sc1SCc1nc(sc1C(=O)OCC)-c1nc(c(C(=O)OCC)s1)CSc1sc(=S)sc1SCc1nc-2sc1C(=O)OCC	> 10 µM
NC(=O)Cn1c(=O)oc2cc(C(=O)CN3CCOCC3)ccc21	> 100 µM
O=C(O)c1cn(C2CC2)c2cc(N3CCN(Cc4c(O)ccc5ccccc45)CC3)c(F)cc2c1=O	> 100 µM
CC(C)OP(=O)(OC(C)C)C(=NCCN=C(NNc1ccccc1[N+](=O)[O-])P(=O)(OC(C)C)OC(C)C)NNc1ccccc1[N+](=O)[O-]	70.9 µM
CC1=N[C@@](C)(C2CC3C=CC2C3=O)COC1=O (stereo not given in full)	> 100 µM
C=CC(=O)N1CC[C@H](n2nc(C#Cc3cc(OC)cc(OC)c3)c3c(N)ncnc32)C1	> 100 µM
COC(=O)C(=O)C(/C(=N/N)C(=O)Nc1ccccc1C(N)=O)c1nc2ccc([N+](=O)[O-])cc2[nH]c1=O (stereo not given)	> 100 µM
COc1ccc2nc3cccc([N+](=O)[O-])c3c(NC(C)CN(C)C)c2c1 (stereo not given)	7.62 µM
CCOC(=O)C1(N)CC1	> 100 µM
NC(N)=N/N=C/c1c(-c2cccnc2)nc2sc(Cl)cn12	23.9 µM
O=S(=O)(c1cc(Cl)ccc1Cl)N1CCN(c2cccc(Cl)c2)CC1	> 100 µM
O=C(O)CCCN=C(C1=C(O)C(=O)N(c2ccccc2)C1=O)c1ccccc1	> 100 µM
O=C(c1ccccc1)c1nc2ccc(C(F)(F)F)cc2nc1N1CCN(c2ccccc2)CC1	> 100 µM
CCCC[C@H]1C(=O)O[C@H](C)[C@H](NC(=O)c2cccc(NC=O)c2OC)C(=O)O[C@@H](C)[C@@H]1OC(=O)CC(C)C (tested in a mixture with another compound)	24.4 µM
CN(/N=C\c1ccnc2ccccc12)c1ccccc1	45.1 µM
COc1ccc(-c2nc3c(C(=O)NCCN(C)C)cccc3c3ccccc23)cc1	10.3 µM
COc1cc(/C=C/C(=O)c2c(-c3ccc(F)cc3)nc3sc(C)nn23)cc(OC)c1OC	5.95 µM
NC(CCCCNCc1ccccc1)C(=O)O (stereo not given)	> 100 µM
